The measurements presented in this section are drawn from the NIST ThermoML archive (doi:10.1016/j.jct.2015.12.021).

conditions: 313.15 K; 5000 kPa; Liquid; Vibrating wire viscometry
Parameter: viscosity. Scope: all listed entries.
Number only, in mPa·s; omit the unit.

Before answering, review these 4 worked examples.
{"COMPOUND": "CCCCCCC", "RECORDED_RESULT": 0.354}
{"COMPOUND": "Cc1ccccc1", "RECORDED_RESULT": 0.4885}
{"COMPOUND": "CC(C)CC(C)(C)C", "RECORDED_RESULT": 0.4353}
{"COMPOUND": "Cc1ccc(C)c(C)c1", "RECORDED_RESULT": 0.7359}

Please look up its viscosity: CCCCCCCCCCCC
1.124

----------
details: 293.15 K; 120000 kPa; Liquid; Vibrating wire viscometry
viscosity: recorded values
Give your result in mPa·s as a bare value.

Sample answers from the record:
{"COMPOUND": "CC(C)CC(C)(C)C", "viscosity [mPa·s]": 1.518}
{"COMPOUND": "Cc1ccccc1", "viscosity [mPa·s]": 1.287}
{"COMPOUND": "Cc1ccc(C)c(C)c1", "viscosity [mPa·s]": 2.288}

Which value of viscosity has been reported for CCCCCCC in the records?
1.028

Next up: CCCCCCCCCCCC
4.953

----------
conditions: 313.15 K; 50000 kPa; Liquid; Vibrating wire viscometry
Hi! Just check whether viscosity is below 1 mPa·s. Below gives 1, equal or above gives 0.

Please review the following examples before continuing.
{"COMPOUND": "CCCCCCC", "ASSIGNED_CLASS": 1}
{"COMPOUND": "CC(C)CC(C)(C)C", "ASSIGNED_CLASS": 1}
{"COMPOUND": "CCCCCCCCCCCC", "ASSIGNED_CLASS": 0}

Okay, next one:
# TODO verify viscosity < 1 mPa·s strictly for this compound: Cc1ccccc1
1

----------
settings: 333.15 K; 100 kPa; Liquid; Vibrating wire viscometry
MEASURED_PROPERTY: viscosity (mPa·s)
# unit: mPa·s | format: bare number

A selection of reference data follows.
{"MOLECULE": "Cc1ccccc1 [toluene]", "viscosity (mPa·s)": 0.3804}
{"MOLECULE": "CC(C)CC(C)(C)C [2,2,4-trimethylpentane]", "viscosity (mPa·s)": 0.3265}
{"MOLECULE": "Cc1ccc(C)c(C)c1 [1,2,4-trimethylbenzene]", "viscosity (mPa·s)": 0.5596}

Suppose we examine the molecule CCCCCCC [heptane] ; what viscosity value has been reported?
0.2821

Another molecule to look at: CCCCCCCCCCCC [dodecane]
0.8013

----------
# viscosity per record follows
settings: 313.15 K; 140000 kPa; Liquid; Vibrating wire viscometry
Numbers after ± are expanded uncertainties.
Kindly format the answer as number then unit.

Take a look at these entries with their results.
{"COMPOUND": "CC(C)CC(C)(C)C", "MEASURED_PROPERTY": "viscosity", "RECORDED_RESULT": "1.363 ± 0.022 mPa·s"}
{"COMPOUND": "CCCCCCCCCCCC", "MEASURED_PROPERTY": "viscosity", "RECORDED_RESULT": "3.755 ± 0.062 mPa·s"}
{"COMPOUND": "Cc1ccc(C)c(C)c1", "MEASURED_PROPERTY": "viscosity", "RECORDED_RESULT": "1.824 ± 0.029 mPa·s"}
{"COMPOUND": "CCCCCCC", "MEASURED_PROPERTY": "viscosity", "RECORDED_RESULT": "0.9137 ± 0.015 mPa·s"}

Which viscosity is listed for Cc1ccccc1 ?
1.128 ± 0.019 mPa·s

----------
details: 293.15 K; 1000 kPa; Liquid; Vibrating wire viscometry
Sorting guide: entries reporting viscosity beneath 0.5 mPa·s go in the y pile, the rest go in the n pile.

{"COMPOUND": "CCCCCCC [heptane]", "ASSIGNED_CLASS": "y"}
{"COMPOUND": "Cc1ccc(C)c(C)c1 [1,2,4-trimethylbenzene]", "ASSIGNED_CLASS": "n"}
{"COMPOUND": "CCCCCCCCCCCC [dodecane]", "ASSIGNED_CLASS": "n"}

Here's an entry: Cc1ccccc1 [toluene] . Is its viscosity below 0.5 mPa·s?
n

----------
conditions: 293.15 K; 100 kPa; Liquid; Vibrating wire viscometry
Rule: viscosity of 0.6 mPa·s or more gives Satisfied; anything lower gives Not satisfied.

{"COMPOUND": "CCCCCCC", "ASSIGNED_CLASS": "Not satisfied"}
{"COMPOUND": "CCCCCCCCCCCC", "ASSIGNED_CLASS": "Satisfied"}
{"COMPOUND": "CC(C)CC(C)(C)C", "ASSIGNED_CLASS": "Not satisfied"}

Next up:
# check: viscosity of Cc1ccc(C)c(C)c1 is greater than or equal to 0.6 mPa·s
Satisfied

----------
settings: 333.15 K; 120000 kPa; Liquid; Vibrating wire viscometry
MEASURED_PROPERTY: viscosity (mPa·s)
Answer with a number only, understood to be in mPa·s.

// known answers, use as guide
{"COMPOUND": "CCCCCCCCCCCC", "MEASURED_PROPERTY": "viscosity", "RECORDED_RESULT": 2.302}
{"COMPOUND": "CCCCCCC", "MEASURED_PROPERTY": "viscosity", "RECORDED_RESULT": 0.6736}
{"COMPOUND": "Cc1ccccc1", "MEASURED_PROPERTY": "viscosity", "RECORDED_RESULT": 0.8176}

// viscosity lookup, key: CC(C)CC(C)(C)C
0.9606

Consider next the compound Cc1ccc(C)c(C)c1 in the same way.
1.221

----------
conditions: 313.15 K; 60000 kPa; Liquid; Vibrating wire viscometry
MEASURED_PROPERTY: viscosity (mPa·s)
// units = mPa·s; emit number, no label

These solved cases illustrate the format of a correct answer.
{"COMPOUND": "Cc1ccc(C)c(C)c1", "viscosity / mPa·s": 1.1}
{"COMPOUND": "Cc1ccccc1", "viscosity / mPa·s": 0.7133}
{"COMPOUND": "CCCCCCC", "viscosity / mPa·s": 0.5563}

Fill blank: measured viscosity of the compound CC(C)CC(C)(C)C is ____.
0.7509

Queued: CCCCCCCCCCCC
1.946

----------
settings: 333.15 K; 40000 kPa; Liquid; Vibrating wire viscometry
Measured viscosity values are reported for all entries that follow.
Could you give me the number in mPa·s? Just the number is fine.

{"COMPOUND": "Cc1ccccc1", "RECORDED_RESULT": 0.5135}

Fill in the blank: the reported viscosity of CC(C)CC(C)(C)C is ____.
0.5232

For Cc1ccc(C)c(C)c1 then?
0.7426

Would you mind doing CCCCCCC as well?
0.4061

And for CCCCCCCCCCCC ?
1.216

----------
settings: 353.15 K; 100000 kPa; Liquid; Vibrating wire viscometry
MEASURED_PROPERTY: viscosity (mPa·s)
Lab book: enter the figure in mPa·s, no units written.

Sample answers from the record:
{"COMPOUND": "CCCCCCC", "viscosity (mPa·s)": 0.5119}
{"COMPOUND": "CC(C)CC(C)(C)C", "viscosity (mPa·s)": 0.7176}
{"COMPOUND": "CCCCCCCCCCCC", "viscosity (mPa·s)": 1.532}
{"COMPOUND": "Cc1ccccc1", "viscosity (mPa·s)": 0.6113}

Then there is this compound:
// viscosity lookup, key: Cc1ccc(C)c(C)c1
0.8518

----------
Listing of entries alongside the reported viscosity.
conditions: 333.15 K; 70000 kPa; Liquid; Vibrating wire viscometry
Give the quantity in mPa·s, number only.

{"COMPOUND": "CC(C)CC(C)(C)C", "UNIT_STRING": "mPa·s", "viscosity": 0.6779}

Suppose we examine the compound Cc1ccccc1 ; what viscosity value has been reported?
0.6187

----------
conditions: 353.15 K; 140000 kPa; Liquid; Vibrating wire viscometry
Could you mark each record satisfied if its viscosity falls strictly under 0.9 mPa·s, and not satisfied if it equals or exceeds it?

# check: viscosity < 0.9 mPa·s for Cc1ccccc1 [toluene]
satisfied

Also need CCCCCCC [heptane] , thanks.
satisfied

And for CC(C)CC(C)(C)C [2,2,4-trimethylpentane] ?
not satisfied

What do you get for Cc1ccc(C)c(C)c1 [1,2,4-trimethylbenzene] ?
not satisfied

Moving on to CCCCCCCCCCCC [dodecane]
not satisfied

----------
details: 313.15 K; 100 kPa; Liquid; Vibrating wire viscometry
MEASURED_PROPERTY: viscosity (mPa·s)
Numbers only here, please. The scale is mPa·s.

Solved cases below.
{"COMPOUND": "Cc1ccc(C)c(C)c1", "UNIT_STRING": "mPa·s", "viscosity": 0.6989}
{"COMPOUND": "Cc1ccccc1", "UNIT_STRING": "mPa·s", "viscosity": 0.469}

Suppose we examine the molecule CC(C)CC(C)(C)C ; what viscosity value has been reported?
0.4035

Can you check CCCCCCC next?
0.3379

CCCCCCCCCCCC ?
1.064
